subject.of.test: human GLP-1R (human, UniProt P43220 24-463)
test.method.notes: cell-based or functional assay
Square brackets hold non-standard residues; d marks the D form. Side chains are listed from the residue outwards. αMeF = C[C@](N)(Cc1ccccc1)C(=O)O; Iva = CC[C@](C)(N)C(=O)O; Oda = not defined here; Aib = CC(C)(N)C(=O)O
attribute.measured: Agonist activity (EC50), Cre-luc reporter assay (nM)
Report only the number, with the unit nM understood.

The value of Agonist activity (EC50), Cre-luc reporter assay measured for the binder H-Y[Aib]EGT[αMeF]TSDK([Gly-Gly-Gly-Gly-Oda])[Aib]I[Aib]LEKQRQ[Iva]EFVRHLLNK[Aib]TRQRY-NH2 (reading uncertain; also: printed as H-Tyr-Aib-Glu-Gly-Thr-αMePhe-Thr-Ser-Asp-Lys(-Gly-Gly-Gly-Gly-Oda)-Aib-Ile-Aib-Leu-Glu-Lys-Gln-Arg-Gln-Iva-Glu-Phe-Val-Arg-His-Leu-Leu-Asn-Lys-Aib-Thr-Arg-Gln-Arg-Tyr-NH2) turned out to be 0.25

Values were extracted from patent US20190202883A1.
